Source listed as patent US9204653B2.

system: Mycosphaerella graminicola; Anamorph: Septoria tritici; Bayer Code SEPTTR; assay: Leaf blotch of wheat, foliar fungicide treatment, one day protectant (1DP) or three day curative (3DC); type: in vivo, Septoria tritici on wheat plants (variety Yuma); settings: Zymoseptoria tritici, 72 h, three day curative (3DC), 25 ppm, percent control rating, read-out: SEPTTR 3DC 25 ppm
pest or weed control at 25 ppm values for the compounds below.
measure: pest or weed control at 25 ppm

{"smiles-str": "COc1ccccc1CN(C)c1nc(O)ncc1F", "measure": "pest or weed control at 25 ppm", "test-result": "0 to 25%"}
{"smiles-str": "Cc1ccc(COc2ncc(F)c(/N=N/c3cc(C)ccc3C)n2)cc1", "measure": "pest or weed control at 25 ppm", "test-result": "26 to 50%"}
{"smiles-str": "Fc1cnc(OCc2ccccc2)nc1NNc1cccc(C(F)(F)F)c1", "measure": "pest or weed control at 25 ppm", "test-result": "0 to 25%"}
{"smiles-str": "C/C(=N\\Oc1nc(OCc2ccccc2)ncc1F)c1cnc(OCC(F)(F)F)nc1", "measure": "pest or weed control at 25 ppm", "test-result": "0 to 25%"}
{"smiles-str": "C=CCOc1ncc(F)c(NNC(=O)C=C(C)C)n1", "measure": "pest or weed control at 25 ppm", "test-result": "0 to 25%"}
{"smiles-str": "Nc1nc(OCOC(=O)C2CCCC2)ncc1F", "measure": "pest or weed control at 25 ppm", "test-result": "76 to 100%"}
{"smiles-str": "COc1ncc(F)c(N/N=C/c2cccs2)n1", "measure": "pest or weed control at 25 ppm", "test-result": "0 to 25%"}
{"smiles-str": "Fc1cnc(OCc2ccccc2)nc1NNc1ccc(Br)cc1", "measure": "pest or weed control at 25 ppm", "test-result": "0 to 25%"}
{"smiles-str": "CC(=O)OCOc1ncc(F)c(/N=C/N(C)C)n1", "measure": "pest or weed control at 25 ppm", "test-result": "76 to 100%"}
{"smiles-str": "C=CCOc1ncc(F)c(N(O)Cc2ccccc2)n1", "measure": "pest or weed control at 25 ppm", "test-result": "0 to 25%"}
